# targetOfAssay: KIT (JMminus) (Homo sapiens, UniProt P10721)
# Sequence (P10721 589-937 limits assumed): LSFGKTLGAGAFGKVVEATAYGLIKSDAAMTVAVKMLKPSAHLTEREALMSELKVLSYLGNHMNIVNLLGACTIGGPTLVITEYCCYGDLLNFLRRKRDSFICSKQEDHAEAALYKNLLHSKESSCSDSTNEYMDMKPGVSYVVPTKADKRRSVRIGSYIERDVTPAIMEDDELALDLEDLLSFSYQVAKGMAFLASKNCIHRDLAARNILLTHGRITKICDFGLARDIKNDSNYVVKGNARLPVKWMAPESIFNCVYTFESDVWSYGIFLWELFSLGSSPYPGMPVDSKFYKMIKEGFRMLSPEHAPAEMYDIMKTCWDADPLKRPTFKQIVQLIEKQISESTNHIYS
property: Kd

chemicalsmiles=Cn1cc(C(=O)Nc2ccc(CC(=O)Nc3cc(C(C)(C)C)on3)cc2)c2ccccc21 targetofassay="KIT (JMminus) (Homo sapiens, UniProt P10721)" val="< 0.1 µM"
chemicalsmiles=CSc1ncc(Br)c(C(=O)Nc2ccc(CC(=O)Nc3cc(C(C)(C)C)on3)cc2)n1 targetofassay="KIT (JMminus) (Homo sapiens, UniProt P10721)" val="< 0.1 µM"
chemicalsmiles=Cc1nn(C)c(Cl)c1C(=O)Nc1ccc(CC(=O)Nc2cc(C(C)(C)C)on2)cc1 targetofassay="KIT (JMminus) (Homo sapiens, UniProt P10721)" val="< 0.1 µM"

Query: Report Kd for CC(C)(C)c1cc(NC(=O)Cc2ccc(NC(=O)c3cccc4cccnc34)cc2)no1 please.
Reply: 0.1 to 1 µM
